# Experimental Target: HLA-B07.02 (human)
# Test Name: pMHC-I complex dissociation at 37 C, 125I-b2m, half-life
# Experimental Parameters: remark: other sources report otherwise
Experimental Endpoint: Stability (T1/2 (h))

Data request: Consider the binder MANGSLLNYL and give its measured Stability (T1/2 (h)).
Data returned: 0

Data request: Consider the binder MQLMPFGCL and give its measured Stability (T1/2 (h)).
Data returned: 0

Data request: Consider the binder WLHKRGKYI and give its measured Stability (T1/2 (h)).
Data returned: 0

A. SLLNYLREM
B. SLPRFILMEL
C. RVAKIADFGM
Data request: Sort the 3 binders by Stability (T1/2 (h)); largest first, smallest last. Use the labels to give the ranking in the order requested.
Data returned: B, C, A
(B: 0.4 h, C: 0.2 h, A: 0 h)
